Would you mind telling me the reported growth of each entry?
- System: OVCAR-5 ovarian
- Assay Procedure: NCI-60 one-dose screen, 48 h (100 = growth as untreated, 0 = no growth, -100 = all killed)
- Setup Conditions: 10 µM unless noted
About 83,000 compounds went through this panel and 20% of them were active in at least one assay; those are over-represented in the sample as a whole.
Respond numerically; units are % and should not be typed.

Data request, read-out growth, for O=C1Nc2ccc(Br)cc2C12CC(c1ccccc1)=NN2 (stereo unspecified)
82

Now the compound CCCCCn1cnc2c(=S)nc[nH]c21
121

Now the compound CNCc1cccc2c1OCCOCCOCCN(C)S(=O)(=O)c1ccc(cc1)-c1cnc(N)c(n1)C(=O)N2
160

Now the compound COc1cc(/C=N/N(C)C)ccc1O
106

Now the compound CC(=O)C1=C(O)C=C2Oc3c(C(=O)/C=C/c4ccccc4)c(O)c(C)c(O)c3[C@]2(C)C1=O
78.7

Now the compound CCOC(=O)Cc1cnn(C)c1NC(=O)c1ccc(Cl)cc1NC(C)=O
99.3

Now the compound COC1C/C(=N\O)C2OC(c3ccccc3)OCC2O1 (stereo unspecified)
109

Now the compound COc1nc2c(cc1S(=O)(=O)c1ccccc1)CCc1c-2cnn1Cc1ccccc1
93.6

Now the compound O=C1/C(=C/c2ccc(Cl)cc2Cl)CN(S(=O)(=O)c2ccccc2)C/C1=C\c1ccc(Cl)cc1Cl
-3.2

Now the compound Cn1cc(-c2ccc(-c3cn(C)c4ncccc34)[nH]2)c2cccnc21
-6.91

Now the compound Cc1ccc(NC(=O)c2sc3nc4c(cc3c2N)C(=O)CCC4)cc1C
32.6

Now the compound CCCCCCCCCC(=O)Oc1ccc(/C(=C(/C)c2ccccc2)c2ccc(OCCN3CCCC3)cc2)cc1
54.4

Now the compound COc1cc(C#N)cc(OC)c1OCCN(CCOc1c(OC)cc(C#N)cc1OC)S(=O)(=O)c1ccc(C)cc1
108

Now the compound CCOC(=O)C(C#N)C1CCCCC1 (stereo unspecified)
99.8

Now the compound CSc1ccc(N=C=C(c2ccccc2)c2ccccc2)cc1
93.2

Now the compound COc1cc(-c2cc(-c3nc4ccc(Cl)cc4[nH]3)[nH]n2)cc(OC)c1OC
97.3

Now the compound N#Cc1c2c(nc3n[nH]c(N)c13)CCCC2
93.8

Now the compound COC(=O)[C@@H]1CC[C@]2(C)[C@H](CC[C@@H]3O[C@@]32C)[C@@]1(C)CC(=O)c1ccoc1
109

Now the compound CC(=O)OCC1OC(OC2=C(CC=C(Cl)Cl)C(=O)c3ccccc3C2=O)C(OC(C)=O)C(OC(C)=O)C1OC(C)=O (stereo unspecified)
105

Now the compound O=C(Cn1cc(CN2C(=O)c3ccccc3S2(=O)=O)nn1)Nc1ccc([N+](=O)[O-])cc1Cl
113

Now the compound C(=N\Nc1nnn(Cc2ccccc2)n1)/c1ccccc1
93.1

====

- Tested on: UACC-257 melanoma
- Assay Procedure: NCI-60 one-dose screen, 48 h
- Setup Conditions: 10 µM unless noted
Compounds without any hit were thinned out: in the full panel of roughly 83,000, 20% have a hit. Active and inactive are the calls of the source. How the source made its calls: active means growth percent below 10; inactive means the rest.
Hi there, use one of these labels in your reply, thanks! true for active, false for inactive

// param item: CCCCCCNC(=O)Oc1ccc(/C(=C(\C)c2ccccc2)c2ccc(OCCN(CC)CC)cc2)cc1 ; yields the recorded call
true

Now the compound CN1CCOCCOCCOc2ccccc2NC(=O)c2nc(cnc2N)-c2ccc(cc2)S1(=O)=O
true

Now the compound COC(=O)C12C3C(=O)N(c4ccc(OC)cc4)C(=O)C3C(c3cn(-c4ccccc4)nc3C)N1[C@H](c1cn(-c3ccccc3)nc1C)[C@@H]1C(=O)N(c3ccc(OC)cc3)C(=O)[C@@H]12 (some centres undefined)
false

Now the compound Cn1cc(-c2nc(-c3c[nH]c4ccccc34)cs2)c2cccnc21
false

Now the compound COCCOc1ccc(-c2nc3ccc(-c4nc5ccc(N6CCN(C)CC6)cc5[nH]4)cc3[nH]2)cc1
true

Now the compound CCN(CC)CCCC(C)NCCCNc1cccc2cccnc12 (centres undefined)
false

Now the compound COc1c(C2CC(=O)Nc3c2cnn3Cc2ccco2)cc2c(c1OC)OCO2 (centres undefined)
false

Now the compound COc1ccc(-c2cn3c(-c4ccc(OC)cc4)cnc3c(Oc3ccc4c(C)cc(=O)oc4c3)n2)cc1
false

Now the compound CC[n+]1ccc2c(c1)C(=O)c1nccc3c1c-2nc1ccccc13
true

====

- Tested on: NCI-H460 lung
- Assay Procedure: NCI-60 one-dose screen, 48 h (100 = growth as untreated, 0 = no growth, -100 = all killed)
- Setup Conditions: 10 µM unless noted
Compounds without any hit were thinned out: in the full panel of roughly 83,000, 20% have a hit.
Would you mind telling me the reported growth of each entry?
Respond numerically; units are % and should not be typed.

Data request, read-out growth, for NC1=CC(=O)C(=O)c2ccccc21
106

Now the compound COc1ccc(C(=O)/C=C/c2c[n+](=O)c3ccc(F)cc3n2[O-])cc1
119

Now the compound C=CC[N+]1(CC)CCN=C1CCCCCCCCCCCCCCCCC (stereo not given)
-100

Now the compound CCN(CC)CCCC(C)NCCCNc1cccc2cccnc12 (stereo not given)
101

Now the compound CC/C=C\C[C@H](O)C/C=C1/C(=O)C=C[C@@H]1C/C=C\CCCC(=O)NC(C)C
-4.43

Now the compound COC(=S)SCN(CSC(=S)OC)c1ccc(Cl)cc1
87

Now the compound O=[N+]([O-])c1cccc(C2CC(c3ccccc3)=Nc3ccccc3S2)c1 (stereo not given)
106

Now the compound CC(C)[C@@H]1CC[C@]2(C(=O)NCCCCN=C(N)N)CC[C@]3(C)[C@H](CC[C@@H]4[C@@]5(C)CCC(=O)C(C)(C)[C@@H]5CC[C@]43C)[C@@H]12
58.9

Now the compound CCOC(=O)CC(=O)c1c(C)cc(C)cc1C
105

Now the compound C[C@@H]1CCC2=C(CCC[C@]2(C)C(=O)O)[C@@]1(C)CCc1ccoc1
96.9

====

- Tested on: HS 578T breast
- Assay Procedure: NCI-60 one-dose screen, 48 h
- Setup Conditions: 10 µM unless noted
- Experimental: Growth inhibition of the HS 578T human tumor cell line is measured as a screen for anti-cancer activity. Cells are grown in 96 well plates and exposed to the test compound for 48 hours. Compounds are tested at a single concentration, which is 10^-5 M for most compounds. The reported endpoint is percent growth (GI% or GIPRCNT), where numbers from 0 - 100% represent growth inhibition, and numbers from -100% - 0 represent cell death. For example, a value of 40 represents 60% growth inhibition. […]
This is part of a sample that, as a whole, favours compounds with a hit. Of some 83,000 tested, about 20% had one in any assay. Calls of active or inactive are those of the source. The calls were made as follows: active = growth percent below 10; inactive = the rest.
Hi there, use one of these labels in your reply, thanks! active, inactive

// param item: Cc1ccc(S(=O)(=O)N(CCc2ccc(Cl)cc2)S(=O)(=O)c2ccc(C)cc2)cc1 ; yields the recorded call
inactive

Now the molecule CC(=O)/C(=C/c1cccc(Cl)c1)C(=O)c1ccccc1
inactive

Now the molecule N#Cc1c(N)nc(N)nc1Nc1ccc(Br)cc1
inactive

Now the molecule COc1ccc2nc(NC(=O)c3cccnc3Nc3cc(OC)c(OC)c(OC)c3)sc2c1
inactive

Now the molecule COc1cccc(-n2cc(-c3nc(Nc4cc(C)[nH]n4)c4ccccc4n3)nn2)c1
inactive

Now the molecule O=C(Nc1ccc(F)cc1)Nc1ccc(CCO)cc1
inactive

Now the molecule COc1cc(OC)c(/C=C/c2cc[n+](C)c3ccccc23)c(OC)c1
inactive

Now the molecule O=C(Nc1ccc(Oc2ccc(F)cc2)c(Cl)c1)c1cccnc1
inactive

Now the molecule O=C1O[C@H]([C@H](O)CO)C(O)=C1O
inactive

Now the molecule CCCCCCCCCCCCN1CCCC(C)C1 (configuration not stated)
inactive

Now the molecule N#CC1=C(N)Oc2c(ccc3ccccc23)C1c1cccs1 (configuration not stated)
inactive

Now the molecule COc1cnc2c(c1)C(=O)c1c-2n(CCCN2CCNCC2)c(=O)c2cc([N+](=O)[O-])ccc12
inactive

Now the molecule C/C(=C(/c1ccc(O)cc1)c1ccc(Cl)cc1)c1ccccc1
active

Now the molecule CC/C=C\C[C@H](O)C/C=C1/C(=O)C=C[C@@H]1C/C=C\CCCC(=O)NC(C)C
inactive

Now the molecule O=C(CNC1C2CC3CC(C2)CC1C3)Sc1nnc2sc3ccccc3n12 (configuration not stated)
inactive

Now the molecule O=C1OC2C(I)C3CC2C1C3c1ccccc1 (configuration not stated)
inactive

Now the molecule Cn1cc(-c2csc(-c3cn(C)c4ncccc34)n2)c2ccccc21
inactive

Now the molecule CCN(C(=O)CN1CCN(c2cc3c(cc2F)c(=O)c(C(=O)O)cn3C2CC2)CC1)c1nc(-c2ccc(OC)cc2)cs1
inactive

Now the molecule O=C1CC(c2nc3ccccc3s2)CN1C1CCCCC1 (configuration not stated)
inactive

Now the molecule CSc1[nH]c2ncnc(N)c2c1C#N
inactive

Now the molecule CCCCCCCCCCCCCC1=NCCN1CCO
inactive

Now the molecule C=C1C(=O)O[C@H]2[C@H]1CC/C(Cn1cc(Cn3ccc4cc(Cl)ccc43)nn1)=C\CC[C@@]1(C)O[C@@H]21
inactive

The values you see were collected from PubChem BioAssay (NCI).
